Cited source for all entries: ChEMBL document CHEMBL2169765

Molecular target: Vitamin D3 receptor (Homo sapiens)
Sequence (P11473 whole entry): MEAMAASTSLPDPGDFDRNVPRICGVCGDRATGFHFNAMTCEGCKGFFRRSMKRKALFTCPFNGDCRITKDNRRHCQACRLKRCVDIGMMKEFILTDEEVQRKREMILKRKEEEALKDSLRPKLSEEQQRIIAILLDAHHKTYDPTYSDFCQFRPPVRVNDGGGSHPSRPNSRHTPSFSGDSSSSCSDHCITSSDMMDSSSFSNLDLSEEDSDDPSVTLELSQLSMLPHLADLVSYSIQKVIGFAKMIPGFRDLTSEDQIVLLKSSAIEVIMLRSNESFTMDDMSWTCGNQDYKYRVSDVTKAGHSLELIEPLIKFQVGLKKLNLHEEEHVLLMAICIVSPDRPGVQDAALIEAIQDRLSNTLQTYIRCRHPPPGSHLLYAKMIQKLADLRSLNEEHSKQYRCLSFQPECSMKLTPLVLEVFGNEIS
Assay: Transactivation of GAL4-fused VDR ligand binding domain expressed in human HeLa cells after 16 hrs by luciferase reporter gene assay
Type: cell-based
measured property: pEC50
Conceptually, pEC50 converts a concentration in mol/L into minus its log10.

input: Quote pEC50 reported for CC/C(=C\C=C\C(O)(C(F)(F)F)C(F)(F)F)c1cccc(CCc2ccc(CO)c(CO)c2)c1 please.
output: 8.77

input: Quote pEC50 reported for CC/C(=C\C=C\C(O)(C(F)(F)F)C(F)(F)F)c1cccc(OCc2ccc(CO)c(CO)c2)c1 please.
output: 8.30
